This section presents compounds with their documented Residual thrombin activity: Top sample values.
# system_name: UniProt:P00734
# method_description: Sub-library screen for active and permeable cyclic peptides (PAMPA plus thrombin inhibition)
# Type: biochemical
# condition_context: PAMPA acceptor well after 14 h, 5 μM donor; crude; slopes normalized to DMSO
endpoint_label: Residual thrombin activity: Top sample

>  <sample_smiles>
O=C1C[C@H]2CCCN2C(=O)[C@@H](Cc2ccccc2)NC(=O)[C@@H](NC(=O)c2ccc(Cl)s2)CSCCS(=O)(=O)CCSCCN1

>  <endpoint_label>
Residual thrombin activity: Top sample

>  <quantitative_result>
103.5

$$$$
>  <sample_smiles>
Cc1cccc(C[C@@H]2NC(=O)[C@@H](NC(=O)c3ccc(Cl)s3)CCSCC(=O)CSCCNC(=O)C[C@H]3CCCN3C2=O)c1

>  <endpoint_label>
Residual thrombin activity: Top sample

>  <quantitative_result>
99.9

$$$$
>  <sample_smiles>
O=C1C[C@H]2CCCN2C(=O)[C@H](Cc2ccc(C(F)(F)F)cc2)NC(=O)[C@@H](NC(=O)c2ccc(Cl)s2)CCSC/C=C/CSCCN1

>  <endpoint_label>
Residual thrombin activity: Top sample

>  <quantitative_result>
103.3

$$$$
>  <sample_smiles>
N#Cc1ccc(C[C@@H]2NC(=O)[C@@H](NC(=O)c3ccc(Cl)s3)CSC/C=C/CSCCNC(=O)C[C@H]3CCCN3C2=O)cc1

>  <endpoint_label>
Residual thrombin activity: Top sample

>  <quantitative_result>
93.4

$$$$
>  <sample_smiles>
CN1C(=O)[C@@H](NC(=O)c2ccc(Cl)s2)CCCSC/C=C/CSCCNC(=O)C[C@H]2CCCN2C(=O)[C@@H]1Cc1ccccc1

>  <endpoint_label>
Residual thrombin activity: Top sample

>  <quantitative_result>
101.4

$$$$
>  <sample_smiles>
O=C1C[C@H]2CCCN2C(=O)[C@H](Cc2ccc(Cl)cc2)NC(=O)[C@@H](NC(=O)c2ccc(Cl)s2)CCSCc2ccc(cc2)CSCCN1

>  <endpoint_label>
Residual thrombin activity: Top sample

>  <quantitative_result>
99.4

$$$$
>  <sample_smiles>
N#Cc1ccc(C[C@@H]2NC(=O)[C@@H](NC(=O)c3ccc(Cl)s3)CCCSCc3ccc(cc3)CSCCNC(=O)C[C@H]3CCCN3C2=O)cc1

>  <endpoint_label>
Residual thrombin activity: Top sample

>  <quantitative_result>
103.5

$$$$
>  <sample_smiles>
N#Cc1ccc(C[C@@H]2NC(=O)[C@@H](NC(=O)c3ccc(Cl)s3)CCSC/C=C/CSCCNC(=O)C[C@H]3CCCN3C2=O)cc1

>  <endpoint_label>
Residual thrombin activity: Top sample

>  <quantitative_result>
100.5

$$$$
>  <sample_smiles>
N#Cc1ccc(C[C@@H]2NC(=O)[C@@H](NC(=O)c3ccc(Cl)s3)CCCSCC(=O)CSCCNC(=O)C[C@H]3CCCN3C2=O)cc1

>  <endpoint_label>
Residual thrombin activity: Top sample

>  <quantitative_result>
106.1

$$$$
>  <sample_smiles>
O=C1C[C@H]2CCCN2C(=O)[C@H](Cc2ccc(C(F)(F)F)cc2)NC(=O)[C@@H](NC(=O)c2ccc(Cl)s2)CCCSCCS(=O)(=O)CCSCCN1

>  <endpoint_label>
Residual thrombin activity: Top sample

>  <quantitative_result>
105.4

$$$$
>  <sample_smiles>
O=C1C[C@H]2CCCN2C(=O)[C@H](Cc2ccc(C(F)(F)F)cc2)NC(=O)[C@@H](NC(=O)c2ccc(Cl)s2)CCCSCc2cccc(c2)CSCCN1

>  <endpoint_label>
Residual thrombin activity: Top sample

>  <quantitative_result>
105.6

$$$$
>  <sample_smiles>
N#Cc1ccc(C[C@@H]2NC(=O)[C@@H](NC(=O)c3ccc(Cl)s3)CCCSCc3ccccc3CSCCNC(=O)C[C@H]3CCCN3C2=O)cc1

>  <endpoint_label>
Residual thrombin activity: Top sample

>  <quantitative_result>
96.5

$$$$

Reference source: paper PMC11062899
